# MIC listing for each entry below
# Test system: Pseudomonas aeruginosa
# Method description: Antibacterial activity against Pseudomonas aeruginosa ATCC BAA-427 assessed as reduction in bacterial growth measured after 18 hrs by broth microdilution method
# Format: functional
Where a SMILES comes first, the peptide text is derived from it. The star is where a group is joined. Myristoyl = CCCCCCCCCCCCCC(=O)*; Lauroyl = CCCCCCCCCCCC(=O)*; Decanoyl = CCCCCCCCCC(=O)*; Spermine = NCCCNCCCCNCCCN*
Measured quantity: MIC (µM)

>>> numeric_value("CCCCCCCCCC(=O)N1CCC[C@H]1C(=O)N[C@@H](CCCNC(=N)N)C(=O)N1CCC[C@H]1C(=O)N[C@@H](CCCNC(=N)N)C(=O)N1CCC[C@H]1C(=O)N1CCC[C@H]1C(=O)N[C@@H](CCCNC(=N)N)C(=O)NCCCNCCCCNCCCN (Decanoyl-PRPRPPR-Spermine)")
6.2
>>> numeric_value("CCCCCCCCCCCCCC(=O)N1CCC[C@H]1C(=O)N[C@@H](CCCNC(=N)N)C(=O)N1CCC[C@H]1C(=O)N[C@@H](CCCNC(=N)N)C(=O)N1CCC[C@H]1C(=O)N1CCC[C@H]1C(=O)N[C@@H](CCCNC(=N)N)C(=O)NCCCNCCCCNCCCN (Myristoyl-PRPRPPR-Spermine)")
6.2
>>> numeric_value("CCCCCCCCCCCC(=O)N1CCC[C@H]1C(=O)N[C@@H](CCCNC(=N)N)C(=O)N1CCC[C@H]1C(=O)N[C@@H](CCCNC(=N)N)C(=O)N1CCC[C@H]1C(=O)N1CCC[C@H]1C(=O)N[C@@H](CCCNC(=N)N)C(=O)NCCCNCCCCNCCCN (Lauroyl-PRPRPPR-Spermine)")
6.2

----------
survival at 168 h reference
# Method description: Acute toxicity in BALB/c mouse assessed as mouse survival at 10 mg/kg, ip measured for 7 days
# Format: organism-based
# Condition set: in vivo, time 7 day
Where a SMILES comes first, the peptide text is derived from it. The star is where a group is joined. Lauroyl = CCCCCCCCCCCC(=O)*; Decanoyl = CCCCCCCCCC(=O)*; Spermine = NCCCNCCCCNCCCN*
Measured quantity: survival at 168 h (%)

>>> numeric_value("CCCCCCCCCC(=O)N1CCC[C@H]1C(=O)N[C@@H](CCCNC(=N)N)C(=O)N1CCC[C@H]1C(=O)N[C@@H](CCCNC(=N)N)C(=O)N1CCC[C@H]1C(=O)N1CCC[C@H]1C(=O)N[C@@H](CCCNC(=N)N)C(=O)NCCCNCCCCNCCCN (Decanoyl-PRPRPPR-Spermine)")
100
>>> numeric_value("CCCCCCCCCCCC(=O)N1CCC[C@H]1C(=O)N[C@@H](CCCNC(=N)N)C(=O)N1CCC[C@H]1C(=O)N[C@@H](CCCNC(=N)N)C(=O)N1CCC[C@H]1C(=O)N1CCC[C@H]1C(=O)N[C@@H](CCCNC(=N)N)C(=O)NCCCNCCCCNCCCN (Lauroyl-PRPRPPR-Spermine)")
100

----------
# Test system: Pseudomonas aeruginosa
# Method description: Antibacterial activity against Pseudomonas aeruginosa ATCC BAA-427 assessed as reduction in bacterial growth measured after 18 hrs by broth microdilution method
# Format: functional
Where a SMILES comes first, the peptide text is derived from it. The star is where a group is joined. Decanoyl = CCCCCCCCCC(=O)*; Spermine = NCCCNCCCCNCCCN*
Measured quantity: MIC

>>> result("CCCCCCCCCCCC(=O)NCCCNCCCCNCCCN")
"> 200 µM"
>>> result("CCCCCCCCCC(=O)NCCCNCCCCNCCCN")
"> 200 µM"
>>> result("N=C(N)NCCC[C@H](NC(=O)[C@@H]1CCCN1C(=O)[C@@H]1CCCN1C(=O)[C@H](CCCNC(=N)N)NC(=O)[C@@H]1CCCN1C(=O)[C@H](CCCNC(=N)N)NC(=O)[C@@H]1CCCN1)C(=O)NCCCNCCCCNCCCN (H-PRPRPPR-Spermine)")
"> 200 µM"
>>> result("CCCCCCCCCC(=O)N1CCC[C@H]1C(=O)N[C@@H](CCCNC(=N)N)C(=O)N1CCC[C@H]1C(=O)N[C@@H](CCCNC(=N)N)C(=O)N1CCC[C@H]1C(=O)N1CCC[C@H]1C(=O)N[C@@H](CCCNC(=N)N)C(=O)O (Decanoyl-PRPRPPR-OH)")
"> 200 µM"
